B1: PLD5 (parent)
chain: WIVDKQHVYIGSAGLDWQSLGQMK

Variants of: B1
Assay: protein stability index of a GFP-peptide fusion (GPS, HEK-293T) (PSI 1-6); higher = more stable;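 also: lentivirally expressed fusions sorted by FACS into six bins by GFP to DsRed ratio, PSI derived from sequencing read proportions per bin multiplied by bin number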
Details: c terminus: a fixed tail appended
Please mark Criterion met if the recorded protein stability index is equal to or greater than 2, and Criterion not met if it falls below.

protein stability index >= 2 for "Q6C" ?
Criterion not met

protein stability index >= 2 for "I10K" ?
Criterion met

protein stability index >= 2 for "V3H" ?
Criterion not met

protein stability index >= 2 for "Q18K" ?
Criterion not met

protein stability index >= 2 for "S12A" ?
Criterion not met

protein stability index >= 2 for "S19K" ?
Criterion met

protein stability index >= 2 for "Q22R" ?
Criterion not met

Data provenance is the supplement of paper PMC10567573.
